Molecular target: UniProt:Q695T7
Test: hB0AT1 inhibitory test (phenylalanine uptake)
Settings: Human B0AT1 stable expression CHO cells; [3H]-L-phenylalanine uptake, phenylalanine 0.25 mM
Readout label: pIC50
Give bare numbers, as −log10 of the molar value.

Record excerpt, results attached:
CN1[C@@H]2CC[C@H]1CN(C(=O)CNC(=O)/C=C/c1ccc(C(F)(F)F)cc1)C2; 6.19
CN(C)C(=O)c1nc2n(n1)CCN(C(=O)CNC(=O)/C=C/c1ccc(C(F)(F)F)cc1)C2; 7.11
N#Cc1ccc2c(c1)CN(C(=O)CNC(=O)/C=C/c1ccc(C(F)(F)F)cc1)CC2; 7.60
O=C(/C=C/c1ccc(C(F)(F)F)cc1)NCC(=O)N1CCc2cncnc2C1; 7.27
CCNC(=O)N1CCN(C(=O)CNC(=O)/C=C/c2ccc(C(F)(F)F)cc2)CC1; 5.91
COCC(C)N(Cc1nnc(C)o1)C(=O)CNC(=O)/C=C/c1ccc(C(F)(F)F)cc1 (stereo not drawn); 6.78

Please give pIC50, item by item, for the list that follows.
1. COCCN(CCOC)C(=O)CNC(=O)/C=C/c1ccc(C(F)(F)F)cc1
2. COCCN(Cc1ncc(C)s1)C(=O)CNC(=O)/C=C/c1ccc(C(F)(F)F)cc1

1. 6.55
2. 7.17

For the compound shown here, O=C(/C=C/c1ccc(C(F)(F)F)cc1F)NCC(=O)N1CCc2cc(Br)cc(F)c2C1 , give the reported pIC50.
7.47

---

Biological target: UniProtKB Q695T7
Assay: hB0AT1 inhibitory test (phenylalanine uptake)
Settings: Human B0AT1 stable expression CHO cells; [3H]-L-phenylalanine uptake, phenylalanine 0.25 mM
Readout label: pIC50
Numbers only, as −log10 of the molar value.

O=C(/C=C/c1ccc(C(F)(F)F)cc1)NCC(=O)N1CCn2ncnc2C1 [I-35]; 7.29
CNC(=O)[C@H]1CCN(C(=O)CNC(=O)/C=C/c2ccc(C(F)(F)F)cc2)C1 [I-144]; 6.58
Cc1nnc([C@H]2CN(C)CCN2C(=O)CNC(=O)/C=C/c2ccc(C(F)(F)F)cc2)o1 [I-121]; 7.09

Please give pIC50, item by item, for the list that follows.
1. NS(=O)(=O)c1ccc2c(c1)CN(C(=O)CNC(=O)/C=C/c1ccc(C(F)(F)F)cc1)CC2 [I-189]
2. O=C(/C=C/c1ccc(C(F)(F)F)cc1)NCC(=O)N1CCN2CCOCC2C1 (stereo not drawn) [I-41]
3. O=C(/C=C/c1ccc(C(F)(F)F)cc1)NCC(=O)N1CC[C@H](C(=O)O)C1 [I-125]
4. O=C(/C=C/c1ccc(C(F)(F)F)cc1)NCC(=O)N1CCC(n2cccn2)CC1 [I-73]
5. COCCN(Cc1cc(C)n(C)n1)C(=O)CNC(=O)/C=C/c1ccc(C(F)(F)F)cc1 [I-58]

1. 7.46
2. 6.08
3. 5.79
4. 6.64
5. 6.45

Please give pIC50, item by item, for the list that follows.
1. O=C(/C=C/c1ccc(C(F)(F)F)cc1)NCC(=O)N1CCn2ncc(Cl)c2C1 [I-202]
2. O=C(/C=C/c1ccc(C(F)(F)F)cc1)NCC(=O)N1CCc2ncncc2C1 [I-78]
3. CNC(=O)[C@H]1C[C@H](n2cccn2)CN1C(=O)CNC(=O)/C=C/c1ccc(C(F)(F)F)cc1 [I-215]
4. O=C(/C=C/c1ccc(C(F)(F)F)cc1)NCC(=O)N1CCc2ccc(C(=O)O)cc2C1 [I-270]
5. O=C(/C=C/c1ccc(C(F)(F)F)cc1)NCC(=O)N1CCCn2nccc21 [I-86]
6. Cc1nnc([C@H]2CN(C(=O)CNC(=O)/C=C/c3ccc(C(F)(F)F)cc3)CCN2C)o1 [I-131]
7. COCCN(C)C(=O)CN(CCOC)C(=O)CNC(=O)/C=C/c1ccc(C(F)(F)F)cc1 [I-147]
8. CCCCOc1ccc(/C=C/C(=O)NCC(=O)N2CCN(C)CC2)cc1 [I-113]

1. 7.66
2. 7.25
3. 6.33
4. 6.77
5. 7.64
6. 5.71
7. 6.53
8. 6.75

Please give pIC50, item by item, for the list that follows.
1. O=C(/C=C/c1ccc(C(F)(F)F)cc1)NCC(=O)N1CCn2ncc(C(=O)N3CCCC3)c2C1 [I-222]
2. O=C(/C=C/c1ccc(C(F)(F)F)cc1)NCC(=O)N1Cc2cncnc2C1 [I-68]

1: 7.48; 2: 7.24

---

Target: Human B0AT1 (Homo sapiens (Human), UniProt Q695T7)
Sequence (Q695T7 whole entry): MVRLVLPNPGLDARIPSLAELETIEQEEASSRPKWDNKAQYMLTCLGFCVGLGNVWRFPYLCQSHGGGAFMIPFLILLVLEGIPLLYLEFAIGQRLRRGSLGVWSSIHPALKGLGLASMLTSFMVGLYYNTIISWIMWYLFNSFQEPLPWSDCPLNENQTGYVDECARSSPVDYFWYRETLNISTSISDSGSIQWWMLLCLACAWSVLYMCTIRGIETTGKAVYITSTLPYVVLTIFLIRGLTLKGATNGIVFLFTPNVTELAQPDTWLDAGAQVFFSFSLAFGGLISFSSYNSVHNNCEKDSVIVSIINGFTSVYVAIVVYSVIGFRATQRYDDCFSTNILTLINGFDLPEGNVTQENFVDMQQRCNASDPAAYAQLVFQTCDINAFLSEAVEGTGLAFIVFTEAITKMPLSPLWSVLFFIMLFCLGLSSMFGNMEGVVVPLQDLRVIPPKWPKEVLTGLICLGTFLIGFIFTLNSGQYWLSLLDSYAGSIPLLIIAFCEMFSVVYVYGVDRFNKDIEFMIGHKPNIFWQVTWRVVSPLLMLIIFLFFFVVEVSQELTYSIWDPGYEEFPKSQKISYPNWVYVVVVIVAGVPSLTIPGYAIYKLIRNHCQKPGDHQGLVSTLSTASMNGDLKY
Test: hB0AT1 inhibitory test (phenylalanine uptake)
Conditions: Human B0AT1 stable expression CHO cells; [3H]-L-phenylalanine uptake, phenylalanine 0.25 mM
Readout label: pIC50
Answers are plain numbers, as −log10 of the molar value.

Please give pIC50, item by item, for the list that follows.
1. Cn1nnc2c1CCN(C(=O)CNC(=O)/C=C/c1ccc(C(F)(F)F)cc1)C2
2. O=C(/C=C/c1ccc(C(F)(F)F)cc1)NCC(=O)N1CCn2nc(C(F)F)cc2C1
3. O=C(/C=C/c1ccc(C(F)(F)F)cc1)NCC(=O)N1CCn2ncc(Br)c2C1
4. CC(C)(O)c1cc2n(n1)CCN(C(=O)CNC(=O)/C=C/c1ccc(C(F)(F)F)cc1)C2
5. O=C(/C=C/c1ccc(C(F)(F)F)cc1)NCC(=O)N1CCc2ccncc2C1

7.10
7.59
8.00
7.18
7.82

---

Give pIC50 for every item shown.
Target: Human B0AT1 (Homo sapiens (Human), UniProt Q695T7)
Experiment: hB0AT1 inhibitory test (phenylalanine uptake)
Type: cell-based
Conditions: Human B0AT1 stable expression CHO cells; [3H]-L-phenylalanine uptake, phenylalanine 0.25 mM
Numbers only, as −log10 of the molar value.

Record excerpt, results attached:
O=C(/C=C/c1ccc(C(F)(F)F)cc1)NCC(=O)N1CC(=O)NC(c2ccccc2)C1 (centres unmarked) [I-12]; 6.79
O=C(/C=C/c1ccc(C(F)(F)F)cc1)NCC(=O)N1CCN(CCO)CC1 [I-25]; 7.09
N#Cc1cccc2c1CCN(C(=O)CNC(=O)/C=C/c1ccc(C(F)(F)F)cc1)C2 [I-192]; 7.52
Cn1cc2c(n1)CN(C(=O)CNC(=O)/C=C/c1ccc(C(F)(F)F)cc1)C2 [I-70]; 6.87
O=C(/C=C/c1ccc(C(F)(F)F)cc1)NCC(=O)N1CC[C@H](n2cccn2)C1 [I-176]; 6.73

Please give pIC50, item by item, for the list that follows.
1. O=C(/C=C/c1ccc(C(F)(F)F)cc1)NCC(=O)N1CCn2cncc2C1 [I-23]
2. CN1CCN(C(=O)CNC(=O)/C=C/c2ccc(C(F)(F)F)cc2)CC1 [I-2]
3. CC1CN(C(=O)CNC(=O)/C=C/c2ccc(C(F)(F)F)cc2)Cc2ccccc21 (centres unmarked) [I-182]
4. COCCN(Cc1ncccc1Cl)C(=O)CNC(=O)/C=C/c1ccc(C(F)(F)F)cc1 [I-55]
5. CN1CCCN(C(=O)CNC(=O)/C=C/c2ccc(C(F)(F)F)cc2)CC1 [I-3]
6. Cc1cccc2c1CN(C(=O)CNC(=O)/C=C/c1ccc(C(F)(F)F)cc1)CC2 [I-193]

1: 6.95; 2: 7.28; 3: 6.77; 4: 6.91; 5: 7.40; 6: 7.30

Please give pIC50, item by item, for the list that follows.
1. O=C(/C=C/c1ccc(C(F)(F)F)cc1)NCC(=O)N1CCS(=O)(=O)CC1 [I-9]
2. COCCN(Cc1noc(C)n1)C(=O)CNC(=O)/C=C/c1ccc(C(F)(F)F)cc1 [I-52]
3. O=C(/C=C/c1ccc(C(F)(F)F)cc1)NCC(=O)N1CCn2nc(CO)cc2C1 [I-173]
4. COCCN(Cc1ccccn1)C(=O)CNC(=O)/C=C/c1ccc(C(F)(F)F)cc1 [I-50]
5. O=C(/C=C/c1ccc(C(F)(F)F)cc1)NCC(=O)N1CCNC(=O)C1 [I-1]
6. O=C(/C=C/c1ccc(C(F)(F)F)cc1)NCC(=O)N1CCn2nccc21 [I-180]

5.80
7.25
7.52
7.09
6.97
7.70

Please give pIC50, item by item, for the list that follows.
1. CNC(=O)c1cnn2c1CN(C(=O)CNC(=O)/C=C/c1ccc(C(F)(F)F)cc1)CC2 [I-225]
2. O=C(/C=C/c1ccc(C(F)(F)F)cc1)NCC(=O)N1CCn2nc(C(=O)O)c(C3CCCCC3)c2C1 [I-266]
3. O=C(/C=C/c1ccc(C(F)(F)F)cc1)NCC(=O)N1CCc2[nH]ncc2C1 [I-76]

[7.36, 6.88, 7.28]

---

Give pIC50 for every item shown.
Biological target: Human B0AT1 (Homo sapiens (Human))
Test: hB0AT1 inhibitory test (phenylalanine uptake)
Settings: Human B0AT1 stable expression CHO cells; [3H]-L-phenylalanine uptake, phenylalanine 0.25 mM
One number for each entry, as −log10 of the molar value.

Cn1cnc2c1CN(C(=O)CNC(=O)/C=C/c1ccc(C(F)(F)F)cc1)C2 [I-67]; 6.85
COCCN(Cc1nc(C)c(C)s1)C(=O)CNC(=O)/C=C/c1ccc(C(F)(F)F)cc1 [I-57]; 7.02
O=C(/C=C/c1ccc(C(F)(F)F)cc1)NCC(=O)N1CCn2nc(C(=O)O)c(Br)c2C1 [I-269]; 6.84

Next:
Give the reported pIC50 for O=C(/C=C/c1ccc(C(F)(F)F)cc1)NCC(=O)N1CCn2nc(C(=O)O)c(-c3ccc(F)cc3)c2C1 [I-267] (system: Human B0AT1 (Homo sapiens (Human))).
7.08
